# target-or-test-system: LAT1 (Homo sapiens, UniProt Q01650)
# Construct: Using human bladder cancer cell strain T24 cells, in which LAT1 only was strongly expressed; endogenous in cells
# Sequence (Q01650 whole entry): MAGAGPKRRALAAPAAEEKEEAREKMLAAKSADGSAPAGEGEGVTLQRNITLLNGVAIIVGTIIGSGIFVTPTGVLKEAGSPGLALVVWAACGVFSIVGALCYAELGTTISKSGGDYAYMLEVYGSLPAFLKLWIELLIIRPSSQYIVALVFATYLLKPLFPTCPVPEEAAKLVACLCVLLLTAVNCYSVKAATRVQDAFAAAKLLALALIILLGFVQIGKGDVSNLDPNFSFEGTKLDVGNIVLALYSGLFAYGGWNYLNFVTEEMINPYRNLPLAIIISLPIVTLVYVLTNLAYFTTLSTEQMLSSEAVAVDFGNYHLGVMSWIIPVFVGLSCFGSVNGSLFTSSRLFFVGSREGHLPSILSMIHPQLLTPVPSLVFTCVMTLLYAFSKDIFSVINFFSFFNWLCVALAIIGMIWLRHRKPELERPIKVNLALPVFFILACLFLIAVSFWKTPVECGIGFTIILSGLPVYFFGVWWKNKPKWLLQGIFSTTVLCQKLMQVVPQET
# Sequence (P08195 102-630 partner): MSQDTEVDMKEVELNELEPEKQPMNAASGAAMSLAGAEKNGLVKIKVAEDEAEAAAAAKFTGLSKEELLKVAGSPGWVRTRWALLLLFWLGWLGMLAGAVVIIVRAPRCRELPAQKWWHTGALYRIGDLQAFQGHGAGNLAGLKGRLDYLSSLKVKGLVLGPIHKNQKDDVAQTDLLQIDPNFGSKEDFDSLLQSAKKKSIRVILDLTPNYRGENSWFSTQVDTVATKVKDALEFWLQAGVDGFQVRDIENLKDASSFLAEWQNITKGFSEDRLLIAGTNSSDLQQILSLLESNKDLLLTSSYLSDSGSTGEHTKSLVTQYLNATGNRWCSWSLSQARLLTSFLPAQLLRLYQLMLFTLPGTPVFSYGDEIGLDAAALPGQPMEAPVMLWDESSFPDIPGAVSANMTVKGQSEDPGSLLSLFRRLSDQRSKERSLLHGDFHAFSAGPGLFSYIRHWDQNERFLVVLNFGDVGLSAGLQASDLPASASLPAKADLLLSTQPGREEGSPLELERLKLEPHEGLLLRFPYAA
# protocol: LAT1 inhibiting activity: inhibition of 14C-L-leucine uptake in T24 cells
# assay-context: 1 μM 14C-Leu, 1-minute uptake
reported-metric: IC50 (nM)

A selection of reference data follows.
[
  {
    "compound": "N[C@@H](Cc1cc(Cl)c(OCc2cccc3nc4n(c23)Cc2ccccc2-4)c(Cl)c1)C(=O)O",
    "IC50 / nM": 110
  },
  {
    "compound": "N[C@@H](Cc1cccc(Oc2cccc(-c3ccccn3)c2)c1)C(=O)O",
    "IC50 / nM": 520
  },
  {
    "compound": "CN(C)c1ccc(-c2cccc(Oc3cccc(C[C@H](N)C(=O)O)c3)c2)cn1 [Example 97]",
    "IC50 / nM": 10
  },
  {
    "compound": "Cc1c(-c2ccccc2)oc2c(CNc3c(Cl)cc(C[C@H](N)C(=O)O)cc3Cl)cccc2c1=O",
    "IC50 / nM": 100
  }
]

a: N[C@@H](Cc1cc(Cl)c(OCc2cccc3nc(-c4ccncc4)oc23)c(Cl)c1)C(=O)O
b: N[C@@H](Cc1cccc(Oc2cccc(-c3ccncc3)c2)c1)C(=O)O
Q: Which entry has a larger number for IC50, a or b ? Answer = label.
A: b
(b: 840 nM, a: 150 nM)

I: N[C@@H](Cc1cc(Cl)c(OCc2cccc3oc(-c4ccccc4)nc23)c(Cl)c1)C(=O)O
II: N[C@@H](Cc1cccc(Oc2cccc(-c3cnc4ccccc4c3)c2)c1)C(=O)O
III: N[C@@H](Cc1cc(Cl)c(OCc2cccc3nc(-c4ccc(O)cc4)oc23)c(Cl)c1)C(=O)O
Q: Sort entries by IC50 from minimum to maximum value. A ranking is expressed here by listing the labels in the requested order.
A: III, I, II
(III: 200 nM, I: 330 nM, II: 830 nM)

A: N[C@@H](Cc1cc(Cl)c(OCc2cccc3nc(-c4ccco4)oc23)c(Cl)c1)C(=O)O
B: N[C@@H](Cc1cccc(-c2cccc(-c3ccccc3)c2)c1)C(=O)O
Q: Which entry has a larger number for IC50, A or B ? Answer = label.
A: B

---

# target-or-test-system: UniProtKB Q01650
# protocol: Inhibition of leucine uptake into hLAT1 expressing Xenopus oocytes
# assay-context: 10 μM 14C-Leu, 30 minutes uptake, oocytes with hLAT1 and h4F2hc cRNA
# key: entry, value: IC50

A selection of reference data follows.
[
  {
    "entry-smiles": "N[C@@H](Cc1cc(Cl)c(OCCc2csc(-c3ccccc3)n2)c(Cl)c1)C(=O)O",
    "target-or-test-system": "UniProtKB Q01650",
    "reported-metric": "IC50",
    "result": "< 1000 nM"
  },
  {
    "entry-smiles": "N[C@@H](Cc1cc(Cl)c(OCCc2cccc3nc(-c4ccccc4)oc23)c(Cl)c1)C(=O)O",
    "target-or-test-system": "UniProtKB Q01650",
    "reported-metric": "IC50",
    "result": "< 1000 nM"
  }
]

Here is the next item to consider.
Q: Reported IC50 for N[C@@H](Cc1cc(Cl)c(OCCc2coc(-c3ccc4ccccc4c3)n2)c(Cl)c1)C(=O)O : what is it?
A: < 1000 nM
